Reported IC50 values follow for various compounds
Test system: Human colorectal adenocarcinoma HT-29 cells
Experiment: MTT assay
Assay type: cell-based
Measurement Context: 72 hr
Give the quantity in µM, number only.

Record excerpt, results attached:
Cc1ccc(C)c2c1[nH]c1c(NS(=O)(=O)c3ccc(S(N)(=O)=O)cc3)cccc12 [Compound 6g]; 124
Cc1ccc(C)c2c1[nH]c1c(NS(=O)(=O)c3ccc(Cl)cc3)cccc12 [Compound 6d]; 81.6

The value of IC50 recorded for Cc1ccc(S(=O)(=O)Nc2cccc3cc[nH]c23)cc1 [Compound 5b] when tested on Human colorectal adenocarcinoma HT-29 cells reads 7.9

The value of IC50 recorded for O=[N+]([O-])c1ccc(/N=N/c2c[nH]c3c(NS(=O)(=O)c4ccc(Cl)cc4)cccc23)cc1 [Compound 7a] when tested on Human colorectal adenocarcinoma HT-29 cells reads 5.9

The value of IC50 recorded for O=[N+]([O-])c1ccccc1S(=O)(=O)Nc1cccc2cc[nH]c12 [Compound 5h] when tested on Human colorectal adenocarcinoma HT-29 cells reads 126

The value of IC50 recorded for Cc1ccc(C)c2c1[nH]c1c(NS(=O)(=O)c3ccc(N)cc3)cccc12 [Compound 6f] when tested on Human colorectal adenocarcinoma HT-29 cells reads 18.7

The value of IC50 recorded for Cc1ccc(C)c2c1[nH]c1c(NS(=O)(=O)c3ccc([N+](=O)[O-])cc3)cccc12 [Compound 6e] when tested on Human colorectal adenocarcinoma HT-29 cells reads 17.6

The value of IC50 recorded for Cc1ccc(C)c2c1[nH]c1c(NS(=O)(=O)c3ccccc3[N+](=O)[O-])cccc12 [Compound 6h] when tested on Human colorectal adenocarcinoma HT-29 cells reads 17
